- Test system: Aeromonas hydrophila
- Experiment Description: Antimicrobial activity against Aeromonas hydrophila at 20 uL of 1 mg/ml by disc diffusion assay
- Type: functional
- Measurement Context: read-out: IZ
Reported Endpoint: zone of inhibition at 1000 µg/mL (mm)

CC(=O)N1N=C(c2ccc(F)cc2)CC1c1cn(-c2ccccc2)nc1-c1ccc(Cl)c(Cl)c1 (centres undefined) : 19
CCC(=O)N1N=C(c2ccc(Cl)cc2)CC1c1cn(-c2ccccc2)nc1-c1ccc(Cl)c(Cl)c1 (centres undefined) : 23
CCC(=O)N1N=C(c2ccc(F)cc2)CC1c1cn(-c2ccccc2)nc1-c1ccc(Cl)c(Cl)c1 (centres undefined) : 28
Fc1ccc(C2=NNC(c3cn(-c4ccccc4)nc3-c3ccc(Cl)c(Cl)c3)C2)cc1 (centres undefined) : 16

Cited source for all entries: ChEMBL document CHEMBL3612037
